Measured on: human PAI-1, active, wild-type, non-glycosylated (E. coli-derived) (human, UniProt P05121 24-402)
Sequence (P05121 24-402): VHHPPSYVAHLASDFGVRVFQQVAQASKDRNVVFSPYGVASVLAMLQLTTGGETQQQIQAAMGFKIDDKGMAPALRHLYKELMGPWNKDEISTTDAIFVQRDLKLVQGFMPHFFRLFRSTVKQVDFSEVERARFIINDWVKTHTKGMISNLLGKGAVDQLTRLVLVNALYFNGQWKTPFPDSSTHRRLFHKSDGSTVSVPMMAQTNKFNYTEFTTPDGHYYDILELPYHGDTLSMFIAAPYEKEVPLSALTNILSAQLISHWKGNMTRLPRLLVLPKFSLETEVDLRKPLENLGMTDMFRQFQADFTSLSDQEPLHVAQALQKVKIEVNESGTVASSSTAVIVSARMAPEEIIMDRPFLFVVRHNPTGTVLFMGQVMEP
Protocol notes: cell-based or functional assay
Criterion: IC50 chromogenic strictly under 2 nM. Met: Fulfilled. Not met: Not fulfilled.

>  <Binder>
Antibody 26, scFv (scFv, V domains shown) VH: QVQLQQSGAEVKKPGTSVKVSCKASGGTFSSYAISWVRQAPGQGLEWMGGIIPIFGTANYAQKFQGRVTITADESTSTAYMELSSLRSEDTAVYYCAREKRQWLEGHFDYWGRGTPVTVSS VL: DIQMTQSPSFLSASIGDRVTITCRASEGIYHTLAWYQQKPGKAPKLLIYRASSLASGAPSRFSGSGSGTDFTLTISSLQPDDFATYYCQQYSNYPLTFGGGTKLEIK

>  <Label value>
Not fulfilled

$$$$
>  <Binder>
Antibody 12, scFv (scFv, V domains shown) VH: QVQLQQSGAEVKKPGSSVKVSCKASGGTFSSYAISWVRQAPGQGLEWMGGIIPTFPTANYAQKFQGRVTITADESTSTAYMELSGLRSEDTAVYYCAREKRQWLEGHFDYWGRGTPVTVSS VL: DIQMTQSPSFLSASIGDRVTITCRASEGIYHNLAWYQQKPGKAPKLLIYRASSLASGAPSRFSGSGSGTDFTLTISSLQPDDFATYYCQQYSNYPLTFGGGTKLEIK

>  <Label value>
Not fulfilled

$$$$
>  <Binder>
Antibody 03, scFv (scFv, V domains shown) VH: QVQLQQSGAEVKKPGSSVKVSCKASGGTFSSYAISWVRQAPGQGLEWMGGIIPTFGTANYAQKFQGRVTITADESTSTAYMELSGLRSEDTAVYYCAREKRQWLEGHFDYWGRGTPVTVSS VL: DIQMTQSPSFLSASIGDRVTITCRASEGIYRSLAWYQQKPGKAPKLLIYKASSLASGAPSRFSGSGSGTDFTLTISGLQPDDFATYYCQQYSNYPLTFGGGTKLEIK

>  <Label value>
Fulfilled

$$$$
>  <Binder>
Antibody 05, scFv (scFv, V domains shown) VH: QVQLQQSGAEVKKPGSSVKVSCKASGGTFSSYAISWVRQAPGQGLEWMGGIIPTFSTANYAQKFRGRVTITADESTSTAYMELSGLRSEDTAVYYCAREKRQWLEGHFDYWGRGTPVTVSS VL: DIQMTQSPSFLSASIGDRVTITCRASEGIYHQLAWYQQKPGKAPKLLIYRASSLASGAPSRFSGSGSGTDFTLTISSLQPDDFATYYCQQYSNYPLTFGGGTKLEIK

>  <Label value>
Not fulfilled

$$$$
>  <Binder>
Antibody 13, scFv (scFv, V domains shown) VH: QVQLQQSGAEVKKPGSSVKVSCKASGGTFSSYAISWVRQAPGQGLEWMGGIIPTFGTANYAQKFQGRVTITADESTSTAYMELSDLRSEDTAVYYCAREKRQWLEGHFDYWGRGTPVTVSS VL: DIQMTQSPSFLSASIGDRVTITCRASEGIYHSLAWYQQKPGKAPKLLIYRASSLASGAPSRFSGSGSGTDFTLTISSLQPDDFATYYCQQYSNYPLTFGGGTKLEIK

>  <Label value>
Not fulfilled

$$$$

Where do these numbers come from? They come from patent US20120114652A1.
